Attribute: MIC values, Actinobacillus pleuropneumoniae CVCC262
System: Actinobacillus pleuropneumoniae CVCC262
Assay: in vitro susceptibility, MIC by mini broth dilution
Format: cell-based
Conditions: strain CVCC262
READOUT KIND: MIC values, Actinobacillus pleuropneumoniae CVCC262 (ug/mi)

MOLECULE	ASSAYED SYSTEM	UNIT NAME	REPORTED VALUE
CCCN1C[C@H](C)[C@@H](O)[C@](C)(O)[C@@H](CC)OC(=O)[C@H](C)[C@@H](O[C@H]2C[C@@](C)(OC)[C@](O)(CNc3nc(Cl)cc(Cl)n3)[C@H](C)O2)[C@H](C)[C@@H](O[C@@H]2O[C@H](C)C[C@H](N(C)C)[C@H]2O)[C@](C)(O)C[C@H]1C	Actinobacillus pleuropneumoniae CVCC262	ug/mi	2
CCCN1C[C@H](C)[C@@H](O)[C@](C)(O)[C@@H](CC)OC(=O)[C@H](C)[C@@H](O[C@H]2C[C@@](C)(OC)[C@](O)(CNCCOC)[C@H](C)O2)[C@H](C)[C@@H](O[C@@H]2O[C@H](C)C[C@H](N(C)C)[C@H]2O)[C@](C)(O)C[C@H]1C [syzx-158]	Actinobacillus pleuropneumoniae CVCC262	ug/mi	4

----------
Attribute: MIC values, Haemophilus parasuis
Tested on: Haemophilus parasuis
Experiment: in vitro susceptibility, MIC by mini broth dilution
Assay type: cell-based

COMPOUND	MIC values, Haemophilus parasuis / ug/mi
CCCN1C[C@H](C)[C@@H](O)[C@](C)(O)[C@@H](CC)OC(=O)[C@H](C)[C@@H](O[C@H]2C[C@@](C)(OC)[C@](O)(CNc3cc(OC)cc(OC)c3)[C@H](C)O2)[C@H](C)[C@@H](O[C@@H]2O[C@H](C)C[C@H](N(C)C)[C@H]2O)[C@](C)(O)C[C@H]1C	0.5
CC[C@H]1OC(=O)[C@H](C)[C@@H](O[C@H]2C[C@@](C)(OC)[C@](O)(CNCCCCl)[C@H](C)O2)[C@H](C)[C@@H](O[C@@H]2O[C@H](C)C[C@H](N(C)C)[C@H]2O)[C@](C)(O)C[C@@H](C)NC[C@H](C)[C@@H](O)[C@]1(C)O	4
CCCN1C[C@H](C)[C@@H](O)[C@](C)(O)[C@@H](CC)OC(=O)[C@H](C)[C@@H](O[C@H]2C[C@@](C)(OC)[C@](O)(CNCc3ccc(F)c(F)c3)[C@H](C)O2)[C@H](C)[C@@H](O[C@@H]2O[C@H](C)C[C@H](N(C)C)[C@H]2O)[C@](C)(O)C[C@H]1C	0.25
CCCN1C[C@H](C)[C@@H](O)[C@](C)(O)[C@@H](CC)OC(=O)[C@H](C)[C@@H](O[C@H]2C[C@@](C)(OC)[C@](O)(CNc3nc(Cl)cc(Cl)n3)[C@H](C)O2)[C@H](C)[C@@H](O[C@@H]2O[C@H](C)C[C@H](N(C)C)[C@H]2O)[C@](C)(O)C[C@H]1C	4
CCCN1C[C@H](C)[C@@H](O)[C@](C)(O)[C@@H](CC)OC(=O)[C@H](C)[C@@H](O[C@H]2C[C@@](C)(OC)[C@](O)(CNc3ccnc(Cl)c3)[C@H](C)O2)[C@H](C)[C@@H](O[C@@H]2O[C@H](C)C[C@H](N(C)C)[C@H]2O)[C@](C)(O)C[C@H]1C	2
CCCN1C[C@H](C)[C@@H](O)[C@](C)(O)[C@@H](CC)OC(=O)[C@H](C)[C@@H](O[C@H]2C[C@@](C)(OC)[C@](O)(CNCCOC)[C@H](C)O2)[C@H](C)[C@@H](O[C@@H]2O[C@H](C)C[C@H](N(C)C)[C@H]2O)[C@](C)(O)C[C@H]1C [syzx-125]	0.5

----------
Test system: Actinobacillus pleuropneumoniae CVCC262
Assay: in vitro susceptibility, MIC by mini broth dilution
Assay type: cell-based
Details: strain CVCC262
READOUT KIND: MIC values, Actinobacillus pleuropneumoniae CVCC262 (ug/mi)

SMI	REPORTED VALUE
C#CCNC[C@]1(O)[C@H](C)O[C@@H](O[C@H]2[C@H](C)[C@@H](O[C@@H]3O[C@H](C)C[C@H](N(C)C)[C@H]3O)[C@](C)(O)C[C@@H](C)NC[C@H](C)[C@@H](O)[C@](C)(O)[C@@H](CC)OC(=O)[C@@H]2C)C[C@@]1(C)OC	16
CC[C@H]1OC(=O)[C@H](C)[C@@H](O[C@H]2C[C@@](C)(OC)[C@](O)(CNCc3ccc(F)cc3F)[C@H](C)O2)[C@H](C)[C@@H](O[C@@H]2O[C@H](C)C[C@H](N(C)C)[C@H]2O)[C@](C)(O)C[C@@H](C)NC[C@H](C)[C@@H](O)[C@]1(C)O	1

----------
Attribute: MIC values, Pasteurella multocida CVCC399
Test system: Pasteurella multocida CVCC399
Assay: in vitro susceptibility, MIC by mini broth dilution
Type: cell-based
Settings: strain CVCC399
READOUT KIND: MIC values, Pasteurella multocida CVCC399

MOLECULE	ASSAYED SYSTEM	REPORTED VALUE
CCCN1C[C@H](C)[C@@H](O)[C@](C)(O)[C@@H](CC)OC(=O)[C@H](C)[C@@H](O[C@H]2C[C@@](C)(OC)[C@](O)(CNCCCCO)[C@H](C)O2)[C@H](C)[C@@H](O[C@@H]2O[C@H](C)C[C@H](N(C)C)[C@H]2O)[C@](C)(O)C[C@H]1C [syzx-133]	Pasteurella multocida CVCC399	2 ug/mi
CC[C@H]1OC(=O)[C@H](C)[C@@H](O[C@H]2C[C@@](C)(OC)[C@](O)(CNN3CCOCC3)[C@H](C)O2)[C@H](C)[C@@H](O[C@@H]2O[C@H](C)C[C@H](N(C)C)[C@H]2O)[C@](C)(O)C[C@@H](C)NC[C@H](C)[C@@H](O)[C@]1(C)O [syzx-48]	Pasteurella multocida CVCC399	1 ug/mi
CCCN1CC(C)C(O)C(C)(O)C(CC)OC(=O)C(C)C(OC2CC(C)(OC)C(O)(CNC(CO)CO)C(C)O2)C(C)C(OC2OC(C)CC(N(C)C)C2O)C(C)(O)CC1C (stereo not drawn) [syzx-145]	Pasteurella multocida CVCC399	2 ug/mi
CCCN1C[C@H](C)[C@@H](O)[C@](C)(O)[C@@H](CC)OC(=O)[C@H](C)[C@@H](O[C@H]2C[C@@](C)(OC)[C@](O)(CNN3CCCCC3)[C@H](C)O2)[C@H](C)[C@@H](O[C@@H]2O[C@H](C)C[C@H](N(C)C)[C@H]2O)[C@](C)(O)C[C@H]1C [syzx-206]	Pasteurella multocida CVCC399	0.5 ug/mi
CCCN1C[C@H](C)[C@@H](O)[C@](C)(O)[C@@H](CC)OC(=O)[C@H](C)[C@@H](O[C@H]2C[C@@](C)(OC)[C@](O)(CNc3cccnc3Cl)[C@H](C)O2)[C@H](C)[C@@H](O[C@@H]2O[C@H](C)C[C@H](N(C)C)[C@H]2O)[C@](C)(O)C[C@H]1C [syzx-218]	Pasteurella multocida CVCC399	8 ug/mi
CC[C@H]1OC(=O)[C@H](C)[C@@H](O[C@H]2C[C@@](C)(OC)[C@](O)(CNc3ccc4ncccc4c3)[C@H](C)O2)[C@H](C)[C@@H](O[C@@H]2O[C@H](C)C[C@H](N(C)C)[C@H]2O)[C@](C)(O)C[C@@H](C)NC[C@H](C)[C@@H](O)[C@]1(C)O [syzx-99]	Pasteurella multocida CVCC399	8 ug/mi
CCCN1C[C@H](C)[C@@H](O)[C@](C)(O)[C@@H](CC)OC(=O)[C@H](C)[C@@H](O[C@H]2C[C@@](C)(OC)[C@](O)(CNCc3ccc(F)cc3)[C@H](C)O2)[C@H](C)[C@@H](O[C@@H]2O[C@H](C)C[C@H](N(C)C)[C@H]2O)[C@](C)(O)C[C@H]1C [syzx-108]	Pasteurella multocida CVCC399	1 ug/mi
CCCN1C[C@H](C)[C@@H](O)[C@](C)(O)[C@@H](CC)OC(=O)[C@H](C)[C@@H](O[C@H]2C[C@@](C)(OC)[C@](O)(CNCc3ccc(Cl)cc3)[C@H](C)O2)[C@H](C)[C@@H](O[C@@H]2O[C@H](C)C[C@H](N(C)C)[C@H]2O)[C@](C)(O)C[C@H]1C [syzx-120]	Pasteurella multocida CVCC399	0.5 ug/mi

----------
System: Actinobacillus pleuropneumoniae CVCC262
Test: in vitro susceptibility, MIC by mini broth dilution
Assay type: cell-based
Details: strain CVCC262
Entries whose MIC values, Actinobacillus pleuropneumoniae CVCC262 is below 1 ug/mi take Satisfied; entries at or above 1 ug/mi take Not satisfied.

COMPOUND	ASSIGNED CLASS
C#CCNC[C@]1(O)[C@H](C)O[C@@H](O[C@H]2[C@H](C)[C@@H](O[C@@H]3O[C@H](C)C[C@H](N(C)C)[C@H]3O)[C@](C)(O)C[C@@H](C)N(CCC)C[C@H](C)[C@@H](O)[C@](C)(O)[C@@H](CC)OC(=O)[C@@H]2C)C[C@@]1(C)OC [syzx-140]	Satisfied
CC[C@H]1OC(=O)[C@H](C)[C@@H](O[C@H]2C[C@@](C)(OC)[C@](O)(CNN3CCOCC3)[C@H](C)O2)[C@H](C)[C@@H](O[C@@H]2O[C@H](C)C[C@H](N(C)C)[C@H]2O)[C@](C)(O)C[C@@H](C)NC[C@H](C)[C@@H](O)[C@]1(C)O [syzx-48]	Not satisfied
CCCN1C[C@H](C)[C@@H](O)[C@](C)(O)[C@@H](CC)OC(=O)[C@H](C)[C@@H](O[C@H]2C[C@@](C)(OC)[C@](O)(CNCc3ccc(F)cc3)[C@H](C)O2)[C@H](C)[C@@H](O[C@@H]2O[C@H](C)C[C@H](N(C)C)[C@H]2O)[C@](C)(O)C[C@H]1C [syzx-108]	Satisfied
CC[C@H]1OC(=O)[C@H](C)[C@@H](O[C@H]2C[C@@](C)(OC)[C@](O)(CNCCCCl)[C@H](C)O2)[C@H](C)[C@@H](O[C@@H]2O[C@H](C)C[C@H](N(C)C)[C@H]2O)[C@](C)(O)C[C@@H](C)NC[C@H](C)[C@@H](O)[C@]1(C)O [syzx-75]	Not satisfied
CCCN1C[C@H](C)[C@@H](O)[C@](C)(O)[C@@H](CC)OC(=O)[C@H](C)[C@@H](O[C@H]2C[C@@](C)(OC)[C@](O)(CNCC3(C)CC(N)CC(C)(C)C3)[C@H](C)O2)[C@H](C)[C@@H](O[C@@H]2O[C@H](C)C[C@H](N(C)C)[C@H]2O)[C@](C)(O)C[C@H]1C (some centres unmarked) [syzx-106]	Satisfied
CCCCN(C)C[C@]1(O)[C@H](C)O[C@@H](O[C@H]2[C@H](C)[C@@H](O[C@@H]3O[C@H](C)C[C@H](N(C)C)[C@H]3O)[C@](C)(O)C[C@@H](C)NC[C@H](C)[C@@H](O)[C@](C)(O)[C@@H](CC)OC(=O)[C@@H]2C)C[C@@]1(C)OC [syzx-98]	Satisfied
CCCN1C[C@H](C)[C@@H](O)[C@](C)(O)[C@@H](CC)OC(=O)[C@H](C)[C@@H](O[C@H]2C[C@@](C)(OC)[C@](O)(CNC(C)CCc3ccccc3)[C@H](C)O2)[C@H](C)[C@@H](O[C@@H]2O[C@H](C)C[C@H](N(C)C)[C@H]2O)[C@](C)(O)C[C@H]1C (some centres unmarked) [syzx-134]	Satisfied
CCCN1C[C@H](C)[C@@H](O)[C@](C)(O)[C@@H](CC)OC(=O)[C@H](C)[C@@H](O[C@H]2C[C@@](C)(OC)[C@](O)(CNCc3cc(F)cc(F)c3)[C@H](C)O2)[C@H](C)[C@@H](O[C@@H]2O[C@H](C)C[C@H](N(C)C)[C@H]2O)[C@](C)(O)C[C@H]1C [syzx-155]	Satisfied
CCCN1C[C@H](C)[C@@H](O)[C@](C)(O)[C@@H](CC)OC(=O)[C@H](C)[C@@H](O[C@H]2C[C@@](C)(OC)[C@](O)(CN3CCOCC3)[C@H](C)O2)[C@H](C)[C@@H](O[C@@H]2O[C@H](C)C[C@H](N(C)C)[C@H]2O)[C@](C)(O)C[C@H]1C [syzx-204]	Not satisfied
CCCN1C[C@H](C)[C@@H](O)[C@](C)(O)[C@@H](CC)OC(=O)[C@H](C)[C@@H](O[C@H]2C[C@@](C)(OC)[C@](O)(CNC3CC3)[C@H](C)O2)[C@H](C)[C@@H](O[C@@H]2O[C@H](C)C[C@H](N(C)C)[C@H]2O)[C@](C)(O)C[C@H]1C [syzx-217]	Satisfied
CCCCCCNC[C@]1(O)[C@H](C)O[C@@H](O[C@H]2[C@H](C)[C@@H](O[C@@H]3O[C@H](C)C[C@H](N(C)C)[C@H]3O)[C@](C)(O)C[C@@H](C)N(CCC)C[C@H](C)[C@@H](O)[C@](C)(O)[C@@H](CC)OC(=O)[C@@H]2C)C[C@@]1(C)OC [syzx-115]	Satisfied
CC[C@H]1OC(=O)[C@H](C)[C@@H](O[C@H]2C[C@@](C)(OC)[C@](O)(CNc3cc(OC)cc(OC)c3)[C@H](C)O2)[C@H](C)[C@@H](O[C@@H]2O[C@H](C)C[C@H](N(C)C)[C@H]2O)[C@](C)(O)C[C@@H](C)NC[C@H](C)[C@@H](O)[C@]1(C)O [syzx-76]	Not satisfied
